# TEST_PROTOCOL: Efflux ratio of apparent permeability in human Caco-2 cells at 5 uM incubated for 2 hrs by LC-MS/MS analysis
# Type: ADME, cell-based
Label rule, in plain words: efflux ratio at 2 h, 5 µM of 10 and up is T, under 10 is F.

Study these solved cases before continuing.
{"CHEMICAL_STRING": "CCn1c(-c2cccnc2[C@H](C)OC)c2c3cc(ccc31)-c1csc(n1)C[C@H](NC(=O)[C@H](C(C)C)N(C)C(=O)OC)C(=O)N1CCC[C@H](N1)C(=O)OCC(C)(C)C2", "ASSIGNED_CLASS": "F"}
{"CHEMICAL_STRING": "CCn1c(-c2cc(N3CCN(C4COC4)CC3)cnc2[C@H](C)OC)c2c3cc(ccc31)-c1csc(n1)C[C@H](NC(=O)[C@H]1C[C@@H]1C)C(=O)N1CCC[C@H](N1)C(=O)OCC(C)(C)C2", "ASSIGNED_CLASS": "T"}
{"CHEMICAL_STRING": "CCn1c(-c2cccnc2[C@H](C)OC)c2c3cc(ccc31)-c1csc(n1)C[C@H](NC(=O)[C@H](C(C)C)N(C)C(=O)N1CC(OC)C1)C(=O)N1CCC[C@H](N1)C(=O)OCC(C)(C)C2", "ASSIGNED_CLASS": "F"}
{"CHEMICAL_STRING": "CCn1c(-c2cccnc2[C@H](C)OC)c2c3cc(ccc31)-c1csc(n1)C[C@H](NC(=O)[C@H](C(C)C)N(C)C(=O)N1CCC1)C(=O)N1CCC[C@H](N1)C(=O)OCC(C)(C)C2", "ASSIGNED_CLASS": "T"}

Switching to the query record.
Ask: Test whether the molecule CCn1c(-c2cc(N3CC4CC(C3)N4C)cnc2[C@H](C)OC)c2c3cc(ccc31)-c1csc(n1)C[C@H](NC(=O)[C@H]1C[C@@H]1C)C(=O)N1CCC[C@H](N1)C(=O)OCC(C)(C)C2 records efflux ratio at 2 h, 5 µM of 10 or higher.
Reply: T
